Measured cytotoxicity at 10 µM, listed per entry for reference.
Protocol Description: Toxicity liver stage against HepG2, at 10uM
Assay type: cell-based
Set-up: test concentration 10 uM, cell line HepG2-A16-CD81EGFP
Applied Conditions: human, HepG2-A16-CD81EGFP cells; read-out: INHIBITION
Endpoint: cytotoxicity at 10 µM (%)

[[record]]
compound = "CCc1cnc(CN(C(C)=O)C2CCN(CCc3ccccc3)C2)o1 (configuration not stated)"
endpoint = "cytotoxicity at 10 µM"
reported = -8.17

[[record]]
compound = "Cc1cnn(CCCNC(=O)C2CCCCN2Cc2cccnc2)c1 (configuration not stated)"
endpoint = "cytotoxicity at 10 µM"
reported = -8.97

[[record]]
compound = "CCC(C)N(Cc1cnc(NCC(=O)O)nc1)Cc1ccsc1 (configuration not stated)"
endpoint = "cytotoxicity at 10 µM"
reported = 0.866

[[record]]
compound = "Cc1ncc2c(n1)CN(C(C(N)=O)c1ccccc1)CC2 (configuration not stated)"
endpoint = "cytotoxicity at 10 µM"
reported = 0.66

[[record]]
compound = "Cc1nc(C)n(CC2CCCN2Cc2nc3ccccc3n2C)n1 (configuration not stated)"
endpoint = "cytotoxicity at 10 µM"
reported = -2.21

[[record]]
compound = "O=C(Nc1cccnc1-n1cncn1)C1CCC1"
endpoint = "cytotoxicity at 10 µM"
reported = -4.32

[[record]]
compound = "O=C(NCC1(Sc2ccccc2)CC1)c1cc[nH]n1"
endpoint = "cytotoxicity at 10 µM"
reported = -5.96

[[record]]
compound = "Cc1cnc(N)c(C(=O)C2CCN(C(=O)c3cnc(C)cn3)CC2)c1"
endpoint = "cytotoxicity at 10 µM"
reported = -19.7

[[record]]
compound = "COCCn1ccc(NC(=O)Nc2cccc(C#N)c2)n1"
endpoint = "cytotoxicity at 10 µM"
reported = 4

[[record]]
compound = "CC1CN(C)c2ccccc2CN1C(=O)c1ccncc1 (configuration not stated)"
endpoint = "cytotoxicity at 10 µM"
reported = -23.4

[[record]]
compound = "Cc1nccn1-c1ccc(CNC(=O)c2ccc[nH]2)cn1"
endpoint = "cytotoxicity at 10 µM"
reported = -14.2

[[record]]
compound = "CCOC(=O)c1nc(COc2ccc(CC(N)=O)cc2)no1"
endpoint = "cytotoxicity at 10 µM"
reported = -6.24


---

Protocol Description: Toxicity liver stage against HepG2, at 10uM
Type: cell-based
Parameters: test concentration 10 uM, cell line HepG2-A16-CD81EGFP
Applied Conditions: human, HepG2-A16-CD81EGFP cells; read-out: INHIBITION
Collected cytotoxicity at 10 µM values appear next to each entry.
Endpoint: cytotoxicity at 10 µM (%)

[[record]]
compound = "CN(Cc1n[nH]c2c1CCC2)C(=O)c1cc(-c2cccn2C)n[nH]1"
uom = "%"
reported = 5.12

[[record]]
compound = "CS(=O)(=O)N1CCc2c(cccc2NC(=O)Nc2ccccn2)C1"
uom = "%"
reported = -6

[[record]]
compound = "CN1CCCCC12Cc1ccccc1CN(C(=O)c1ccccc1)C2 (configuration not stated)"
uom = "%"
reported = 7.44

[[record]]
compound = "CCCn1c(N2CCCC(C)C2)nc2c(C)nn(C)c2c1=O (configuration not stated)"
uom = "%"
reported = 13.4

[[record]]
compound = "O=C(NCCCN1CCCC1=O)c1nc(-c2ccc3cc[nH]c3c2)no1"
uom = "%"
reported = -7.99

[[record]]
compound = "CCC(=O)NCCc1cc(N2CCN(C(C)=O)CC2)nc(C2CC2)n1"
uom = "%"
reported = -0.439

[[record]]
compound = "CN(C)c1nc2c(c(N3CCC(O)CC3)n1)CN(CC(C)(C)C)CC2"
uom = "%"
reported = 7.5

[[record]]
compound = "Cc1cc(C)n(CCN2CCN(C(=O)c3cc4ccccc4o3)CC2)n1"
uom = "%"
reported = -3.97

[[record]]
compound = "CCCS(=O)(=O)N1CCC(NC(=O)c2ccc(C)s2)CC1"
uom = "%"
reported = -11.4

[[record]]
compound = "CC(C)C(=O)N1CCC(c2nc3c([nH]2)CCCNC3=O)CC1"
uom = "%"
reported = 1.74

[[record]]
compound = "Cc1[nH]c2c(F)cccc2c1CC(=O)N1CCC(NS(C)(=O)=O)CC1"
uom = "%"
reported = 7.58

[[record]]
compound = "c1ccc(CN2Cc3[nH]nc(COc4cccnc4)c3C2)nc1"
uom = "%"
reported = -109

[[record]]
compound = "CCn1nc(C(C)C)cc1C(=O)NCC1CCCN(c2ccccn2)C1 (configuration not stated)"
uom = "%"
reported = 5.65

[[record]]
compound = "CC(C)NC(=O)C1CCC2(CCN(c3ncccn3)CC2)CO1 (configuration not stated)"
uom = "%"
reported = 0.442

[[record]]
compound = "CC(C)CN1CCC2(CCN(Cc3ccoc3)CC2)C1=O"
uom = "%"
reported = 7.85

[[record]]
compound = "Cc1nc(C2(NC(=O)NCc3cc(C#N)ccc3F)CCCC2)no1"
uom = "%"
reported = -4.2

[[record]]
compound = "CC(=O)N(Cc1ncc(C)o1)C1CCN(CCc2cnn(C)c2)C1 (configuration not stated)"
uom = "%"
reported = 0.742

[[record]]
compound = "O=S(=O)(c1cccs1)N1CCC(c2nc(-c3cccs3)no2)CC1"
uom = "%"
reported = 6.14

[[record]]
compound = "CC(C)Nc1ncnc2c1CCN(C(=O)N1CCOCC1)CC2"
uom = "%"
reported = -74

[[record]]
compound = "CCn1ccnc1-c1nc2cc(S(=O)(=O)N3CCCC3)ccc2n1C"
uom = "%"
reported = -22.3

[[record]]
compound = "CC(=O)N1N=C(c2ccco2)OC1C(=O)NCC(C)C (configuration not stated)"
uom = "%"
reported = -5.31

[[record]]
compound = "CCn1nc2c(cc1=O)CN(c1ncnc3sccc13)CC2"
uom = "%"
reported = 47.5

[[record]]
compound = "Cc1nn(CCCNC(=O)C2CCN(S(C)(=O)=O)CC2)cc1Br"
uom = "%"
reported = -7.24

[[record]]
compound = "CC(C)(CO)NCc1nn(Cc2ccccc2)nc1-c1ccccc1"
uom = "%"
reported = -6.69

[[record]]
compound = "CN(Cc1cccc(OC(F)(F)F)c1)C(=O)Cc1ccon1"
uom = "%"
reported = -9.61

[[record]]
compound = "COc1ccc(NC(=O)c2ccc[nH]2)c(N2CCN(C(C)=O)CC2)n1"
uom = "%"
reported = -11.2

[[record]]
compound = "O=S(=O)(Cc1ccc(Br)cc1)NCCO"
uom = "%"
reported = 6.73

[[record]]
compound = "CCN(CC)C(CNS(=O)(=O)c1ccc(C(=O)NC)cc1)c1ccco1 (configuration not stated)"
uom = "%"
reported = 4.62

[[record]]
compound = "O=C(Cc1ccc2c(c1)CCC2)N1CCCC(n2cccn2)C1 (configuration not stated)"
uom = "%"
reported = -7.81

[[record]]
compound = "CO[C@@H]1CCN(Cc2cccs2)[C@H]1Cc1ccncc1"
uom = "%"
reported = -73.4

[[record]]
compound = "CCN(CC)S(=O)(=O)c1ccc(CNC(=O)N2CCC(C#N)CC2)cc1"
uom = "%"
reported = 20

[[record]]
compound = "c1cc(NCc2ccncc2)nc(C2CCCN2)c1 (configuration not stated)"
uom = "%"
reported = -2.55

[[record]]
compound = "O=C(NCc1cc[nH]n1)N1CCN(c2ccccc2Cl)CC1"
uom = "%"
reported = -2.82

[[record]]
compound = "CN1CCCC2(CCN(S(=O)(=O)c3c(Cl)nc4sccn34)C2)C1=O (configuration not stated)"
uom = "%"
reported = 12.4

[[record]]
compound = "c1nc(N2CCCC(Cn3cncn3)C2)c2sccc2n1 (configuration not stated)"
uom = "%"
reported = 6.74

[[record]]
compound = "CCN(CC)C(=O)Cn1ccc2cc(NC(=O)C3CC3)ccc21"
uom = "%"
reported = -3.87

[[record]]
compound = "NS(=O)(=O)c1ccc(F)c(C(=O)NCCSC2CCCCC2)c1"
uom = "%"
reported = 4.69

[[record]]
compound = "COc1ccccc1N1CCN(Cc2nc(C)c(C)o2)CC1"
uom = "%"
reported = 13.4

[[record]]
compound = "Cc1ccc(N(CC(=O)N2CCCCC2)C(=O)C2CCCO2)cc1 (configuration not stated)"
uom = "%"
reported = 13.9

[[record]]
compound = "O=c1cc(CN(Cc2ccco2)C2CC2)nc2ccc(Br)cn12"
uom = "%"
reported = 9.48

[[record]]
compound = "CC1N(c2cnn(C)c2)C(=O)COC12CCN(c1ccccn1)CC2 (configuration not stated)"
uom = "%"
reported = -5.31

[[record]]
compound = "Cc1noc(-c2ccc(N3CCC(C(=O)N4CCCC4)CC3)nc2)n1"
uom = "%"
reported = 6.5

